# Target Entity: human FPR2 (Homo sapiens (Human), UniProt P25090)
# Sequence (P25090 whole entry): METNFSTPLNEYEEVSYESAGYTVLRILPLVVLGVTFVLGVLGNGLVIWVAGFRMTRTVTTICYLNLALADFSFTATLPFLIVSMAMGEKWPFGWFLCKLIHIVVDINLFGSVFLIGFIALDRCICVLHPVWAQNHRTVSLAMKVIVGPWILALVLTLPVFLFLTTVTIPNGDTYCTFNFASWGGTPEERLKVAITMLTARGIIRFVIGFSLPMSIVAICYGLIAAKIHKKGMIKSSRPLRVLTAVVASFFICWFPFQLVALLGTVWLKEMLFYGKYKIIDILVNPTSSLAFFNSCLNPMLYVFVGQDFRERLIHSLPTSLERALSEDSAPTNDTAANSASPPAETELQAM
# Protocol Details: FPR2 cyclic adenosine monophosphate (cAMP) assay
# Format: cell-based
# Condition: CHO cells overexpressing human FPR2; cAMP assay; read-out: hFPR2 agonist activity EC50 (hFPR2 Assay)
pEC50: −log10 of the molar value.
Recorded pEC50, one value per entry.

# Molecule, Target Entity, pEC50
data = [
    ("CN1CCN(c2ccc(N3CCC[C@@H](NC(=O)Nc4ccc(C(F)(F)F)cc4)C3=O)cc2)CC1", "human FPR2 (Homo sapiens (Human), UniProt P25090)", "7.00 to 8.00"),
]

Prompt: # pEC50 lookup, item O=C(Nc1ccc(C(F)(F)F)cn1)N[C@@H]1CCCN(c2ccc(N3CCCCC3=O)cc2)C1=O
Completion: 6.00 to 7.00

Prompt: # pEC50 lookup, item C[C@@H]1COCCN1c1ccc(N2CCC[C@@H](NC(=O)Nc3ccc(C(F)(F)F)nc3)C2=O)cc1
Completion: 7.00 to 8.00

Prompt: # pEC50 lookup, item O=C(Nc1ccc(C(F)(F)F)cc1)N[C@@H]1CCCN(c2ccc(N3CCN(CCO)CC3)nc2)C1=O
Completion: 7.00 to 8.00

Prompt: # pEC50 lookup, item COC[C@@H]1CCCN1c1ccc(N2CCC[C@@H](NC(=O)Nc3ccc(C(F)(F)F)cn3)C2=O)cc1
Completion: 6.00 to 7.00

Prompt: # pEC50 lookup, item O=C(Nc1ccc(Cl)cc1)N[C@@H]1CCCN(c2ccc(N3CCCC(CO)C3)cc2)C1=O (stereo partly shown)
Completion: ≥ 8.00

Prompt: # pEC50 lookup, item O=C(Nc1ccc(Cl)cc1F)N[C@@H]1CCCN(c2ccc(N3CC[C@@H](F)C3)c(F)c2F)C1=O
Completion: ≥ 8.00
